- METHOD NOTES: in vitro
- EXPERIMENTAL PARAMETERS: mouse, liver microsomes
- Description: Metabolic stability in mouse liver microsomes assessed as intrinsic clearance at 0.5 uM incubated for 30 mins by LC-MS/MS analysis
READOUT NAME: microsomal CLint at 0.5 h, 0.5 µM (µL/min/mg)

- Cc1nc(C)c(C(=O)N2CCCC(c3cc4ncccc4[nH]3)C2)s1 (stereo not given): 233
- O=C(c1cc(C(F)(F)F)n[nH]1)N1CCCC(c2cc3ncccc3[nH]2)C1 (stereo not given): 128
- O=C(Nc1ccc(-c2cc3ncccc3[nH]2)cc1)c1ccccc1: 187
- O=C(c1cc(C(F)(F)F)no1)N1CCOC(c2cc3ncccc3[nH]2)C1 (stereo not given): 137
- O=C(c1ccccc1)N1CC=C(c2cc3ccccc3[nH]2)CC1: 1370
- O=C(c1ccc(C(F)(F)F)nc1)N1CCCC(c2cc3ncccc3[nH]2)C1 (stereo not given): 24.9
- Nc1cc(C2CCCN(C(=O)c3cc(C(F)(F)F)no3)C2)[nH]n1 (stereo not given): 54.3
- O=C(c1ccccc1)N1CCCC(c2cc3ncccn3n2)C1 (stereo not given): 1270
- COc1cc(C(=O)N2CCCC(c3cc4ncccc4[nH]3)C2)on1 (stereo not given): 129
- O=C(c1ccc(F)cc1)N1CCC(c2cc3ncccc3[nH]2)C1 (stereo not given): 1230
- O=C(CCc1nc2ncc(Cl)cc2[nH]1)Nc1cccc(F)c1: 301
- O=C(c1ccc(F)cc1)N1CC=C(c2cc3ncccc3[nH]2)CC1: 195
- CC(C)c1cc(C(=O)N2CCC(O)(c3cc4ncccc4[nH]3)CC2)on1: 980
- O=C(CCc1nc2ncc(Cl)cc2[nH]1)Nc1ccccc1: 120
- O=C(c1ccc(F)cc1)N1CCCC(c2cc3nc(Cl)ccc3[nH]2)C1 (stereo not given): 294
- CC(C)(C)c1cc(C(=O)N2CCCC(c3cc4ncccc4[nH]3)C2)on1 (stereo not given): 403
- O=C(c1ccccc1)N1CCCC(c2cn3nc(Cl)ccc3n2)C1 (stereo not given): 242
- O=C(c1cc(C2CC2)no1)N1CCCC(c2cc3ncccc3[nH]2)C1 (stereo not given): 467
- CC(C)c1cc(C(=O)N2CCCC(c3cc4ncccc4[nH]3)C2)on1 (stereo not given): 560
- CCN(CCC(=O)Nc1cccnc1)C(=O)c1ccc(F)cc1: 25.1
- CC(C)(C)OC(=O)N1CCCC(c2cn3nc(Cl)ccc3n2)C1 (stereo not given): 3540
- O=C(c1ccccc1)N1CCC(c2cc3ncccc3[nH]2)CC1: 1040
- O=C(c1cc(C(F)(F)F)no1)N1CCCC(c2cc3ncc(Br)cc3[nH]2)C1 (stereo not given): 431
- O=C(c1ccccc1)N1CCN(c2nc3ccccc3s2)CC1: 4010
- CN(CC(O)c1cc2ncccc2n1S(=O)(=O)c1ccccc1)C(=O)c1ccccc1 (stereo not given): 498
- COc1ccc2[nH]c(C3CCCN(C(=O)c4ccc(F)cc4)C3)cc2n1 (stereo not given): 151
- Cn1nccc1C(=O)N1CCCC(c2cc3ncccc3[nH]2)C1 (stereo not given): 31.9
- Cc1ccoc1C(=O)N1CCCC(c2cc3ncccc3[nH]2)C1 (stereo not given): 1750
- O=C1c2ccccc2CN1CCc1cc2ncccc2[nH]1: 213
- COc1ccc(C(=O)N2CCCC(c3cc4ncccc4[nH]3)C2)cc1OC (stereo not given): 137
- OC1(c2cc3ncccc3[nH]2)CCN(Cc2ccccc2)CC1: 434
- CC(C)(C)OC(=O)N1CCCC(c2cn3cccnc3n2)C1 (stereo not given): 861
- O=C(c1cc(C2CC2)no1)N1CCOC(c2cc3ncccc3[nH]2)C1 (stereo not given): 78.3
- O=C(c1ccc(F)cc1)N1CCCC(c2cc3ncccc3[nH]2)C1 (stereo not given): 337
- CCN(C(=O)CCc1nc2ncccc2[nH]1)c1ccccc1: 102
- O=C(c1ccccc1)N1CC=C(c2cc3ncccc3[nH]2)CC1: 305
- O=C(c1ccccc1)N1CCCC(c2cn3ncccc3n2)C1 (stereo not given): 2900
- O=C(c1ccccc1)N1C=C(c2cc3ncccc3[nH]2)CCC1: 1040

// data source = ChEMBL document CHEMBL4342426
